- method: Pharmacokinetic study in rats after single intravenous administration
- Type: in vivo
- conditionDetails: male, Sprague-Dawley, rat, plasma, single intravenous 5 mg/kg, n = 6
quantity: Cmax (ng/mL)
# unit: ng/mL | format: bare number

Enquiry: For the compound Br.COc1ccc(/C=C/c2cc(/C=C/c3ccc(OC)cc3)nc(OCCCCSC(=N)N)n2)cc1 [1 D] , what Cmax is on record?
Return: 610

---

- method: Pharmacokinetic study in rats after single intravenous administration
- Assay type: in vivo
- conditionDetails: male, Sprague-Dawley, rat, plasma, single intravenous 5 mg/kg, n = 6, read-out: t1/2 (elimination half-life) (converted)
quantity: half-life (h)
Express your answer in h, writing the number without its unit.

Enquiry: Requested field: half-life. Item: Br.COc1ccc(/C=C/c2cc(/C=C/c3ccc(OC)cc3)nc(OCCCCSC(=N)N)n2)cc1 [1 D]
Return: 4.92

---

- method: Pharmacokinetic study in rats after single intravenous administration
- Type: in vivo
- conditionDetails: male, Sprague-Dawley, rat, plasma, single intravenous 5 mg/kg, n = 6, read-out: Vz (apparent volume of distribution)
quantity: Vd
# answer = value followed by unit

Enquiry: Reported Vd, compound Br.COc1ccc(/C=C/c2cc(/C=C/c3ccc(OC)cc3)nc(OCCCCSC(=N)N)n2)cc1 : ____
Return: 46.6 L/kg

---

- method: Pharmacokinetic study in rats after single intravenous administration
- Format: in vivo
- conditionDetails: male, Sprague-Dawley, rat, plasma, single intravenous 5 mg/kg, n = 6, read-out: MRT(0−∞)
- Experimental: The applicability of the developed bioanalytical LC-MS/MS method was evaluated by quantitative determination of 1 D in rat plasma after single intravenous administration. […] The pharmacokinetic parameters including area under the concentration-time curve (AUC), apparent volume of distribution (Vz), elimination half-life (t1/2), and clearance (CLz) were calculated by a non-compartmental analysis method using the DAS 3.0.2 pharmacokinetic programme. […]
quantity: MRT inf (h)
Kindly answer with a numeric value in h, unit omitted.

Enquiry: Find the recorded MRT inf belonging to Br.COc1ccc(/C=C/c2cc(/C=C/c3ccc(OC)cc3)nc(OCCCCSC(=N)N)n2)cc1 [1 D] and report it.
Return: 4.7
